# MEASUREMENT_PROTOCOL: Nuclear factor erythroid 2-related factor 2/antioxidant responsive element (Nrf2/ARE) small molecule agonists: qHTS cell viability counter screen in human keratinocytes (AID 1919968); further: nearly all actives have a fitted effect of over 55% in size
# CONDITION_DETAILS: KeratinoSens HaCaT ARE cells viability, CellTiter-Fluor, 24 h; series mostly up to 92.4 µM
Results filed as inconclusive are left out. Calls of active or inactive are those of the source. The call rests on the fitted dose curve; in most records, active means well fitted cell-killing curve with a large enough effect in the repeat runs; inconclusive means weak or mixed curves, or effect the other way; inactive means flat fitted curve, though single readings scatter.
Labels: true for active, false for inactive

>>> assigned_label("CC(=O)OCC(=O)[C@@]1(O)[C@H](OC(C)=O)C[C@H]2[C@@H]3CCC4=CC(=O)C=C[C@]4(C)[C@@]3(F)[C@@H](O)C[C@@]21C")
"false"
>>> assigned_label("Nc1nc(F)nc2c1ncn2[C@@H]1O[C@H](CO)[C@@H](O)[C@@H]1O")
"false"
>>> assigned_label("CCC(C)C(C)=O (stereo not drawn)")
"false"
>>> assigned_label("CCCCC(CC)C(=O)OCCOCCOCCOCCOC(=O)C(CC)CCCC (stereo not drawn)")
"false"
>>> assigned_label("CCNCCO")
"false"
>>> assigned_label("CCC[Si](OC)(OC)OC")
"false"
>>> assigned_label("CCCOc1ccc2c(c1)CC[C@@H]1[C@@H]2CC[C@]2(C)C(OC)CC[C@@H]12 (stereo partly drawn)")
"false"
>>> assigned_label("CCc1cc(SCc2sc(-c3ccc(C(F)(F)F)cc3)nc2CN2CCN(c3ccc(OC)cc3)CC2)ccc1OCC(=O)O")
"true"
>>> assigned_label("CC(=O)OCC(=O)[C@@]12OC(C)(C)O[C@@H]1C[C@H]1[C@@H]3C[C@H](F)C4=CC(=O)C=C[C@]4(C)[C@@]3(F)[C@@H](O)C[C@@]12C")
"false"
>>> assigned_label("O=C(Oc1cccc2cccnc12)c1ccccc1")
"true"
>>> assigned_label("CCCCCCCCCCO[C@@H]1O[C@H](CO)[C@@H](O)[C@H](O)[C@H]1O")
"false"
>>> assigned_label("COC(=O)c1cc(Cl)cc(Cl)c1")
"false"
>>> assigned_label("C=C[Si]1(C)O[Si](C)(C=C)O[Si](C)(C=C)O[Si](C)(C=C)O1 (stereo not drawn)")
"false"

====

# MEASUREMENT_PROTOCOL: G protein-coupled receptor (GPCR) small molecule agonists, calcium flux assay: HEK293 wild type cell line counter screen (AID 1920065); further: potency means the concentration at half of the fitted maximal effect
# CONDITION_DETAILS: HEK293 WT calcium flux, fluorescence, agonist mode; series mostly up to 57.6 µM
Calls of active or inactive are those of the source. Calls follow the shape of the full dose curve.
REPORTED_ENDPOINT: Potency

>>> experimental_value("O=C1OC2(c3ccccc31)c1ccc(O)c(Br)c1Oc1c2ccc(O)c1Br")
"19.5 µM (active)"
>>> experimental_value("CC(C)(C)c1cc(O)c(C(C)(C)C)cc1O")
"34.7 µM (active)"
>>> experimental_value("C[n+]1c2cc(N)ccc2cc2ccc(N)cc21 (tested in a mixture with another compound)")
"16.9 µM (active)"

====

# MEASUREMENT_PROTOCOL: G protein-coupled receptor (GPCR) small molecule agonists, calcium flux assay: HEK293 wild type cell line counter screen (AID 1920065); on activation: on the % scale 0 is the no-effect control and ±100 the full control effect
# CONDITION_DETAILS: HEK293 WT calcium flux, fluorescence, agonist mode; series mostly up to 57.6 µM
Activity calls are given as the source filed them. Calls follow the shape of the full dose curve.
REPORTED_ENDPOINT: activation

>>> experimental_value("CC1CCCC1")
"inactive"
>>> experimental_value("O=c1[nH]nc(-c2ccc([N+](=O)[O-])o2)o1")
"inactive"
>>> experimental_value("Cc1ccc(NC(=O)c2ccc(CN3CCN(C)CC3)cc2)cc1Nc1nccc(-c2cccnc2)n1")
"inactive"
>>> experimental_value("CC1(C)C(=O)N(Br)C(=O)N1Br")
"inactive"
>>> experimental_value("CCCCCCCCCOC(=O)CCCCC(=O)OCCCCCCC")
"inactive"
>>> experimental_value("O=[N+]([O-])c1ccc(Cl)cc1Cl")
"inactive"
>>> experimental_value("CO")
"inactive"
>>> experimental_value("CCCCCCCCCCCCCCCCCC[N+](C)(C)C")
"inactive"
>>> experimental_value("CN(C)C(=O)C(CCN1CCC(O)(c2ccc(Cl)cc2)CC1)(c1ccccc1)c1ccccc1")
"inactive"
>>> experimental_value("CC(C)(O)c1ccc(C(C)(C)O)cc1")
"inactive"
>>> experimental_value("O=C(O)C(=O)Cc1ccccc1")
"inactive"
>>> experimental_value("COC(=O)c1nc(Cl)c(Cl)nc1N")
"inactive"
>>> experimental_value("CCCC(=O)O[C@]1(C(=O)CO)CC[C@H]2[C@@H]3CCC4=CC(=O)CC[C@]4(C)[C@H]3[C@@H](O)C[C@@]21C")
"inactive"
>>> experimental_value("COC(=O)C1=C(C)NC(C)=C(C(=O)OC)C1c1ccccc1[N+](=O)[O-]")
"inactive"
>>> experimental_value("O=Cc1ccccc1S(=O)(=O)O")
"inactive"
>>> experimental_value("O=C1c2ccccc2C(=O)c2c(O)c(O)cc(O)c21")
"inactive"
>>> experimental_value("N[C@@H](CS)C(=O)O")
"inactive"
>>> experimental_value("O=C(N/N=C/c1ccc([N+](=O)[O-])o1)c1ccc(O)cc1")
"inactive"
>>> experimental_value("CN(C)[C@@H]1C(=O)C(C(N)=O)=C(O)[C@@]2(O)C(=O)C3=C(O)c4c(O)cccc4C[C@H]3C[C@@H]12")
"inactive"
>>> experimental_value("NC(=O)c1ccccc1")
"inactive"
>>> experimental_value("Nc1nc(N)c2nc(CNc3ccc(C(=O)N[C@@H](CCC(=O)O)C(=O)O)cc3)cnc2n1")
"inactive"
>>> experimental_value("CC(=O)OCC=C(C)C")
"inactive"
>>> experimental_value("CC(C)(COC(=O)c1ccccc1)COC(=O)c1ccccc1")
"inactive"
>>> experimental_value("CCCCC(=O)O[C@]1(C(=O)CO)[C@@H](C)C[C@H]2[C@@H]3CCC4=CC(=O)C=C[C@]4(C)[C@@]3(F)[C@@H](O)C[C@@]21C")
"inactive"
>>> experimental_value("CC1=Nc2ccccc2C1(C)C")
"inactive"
>>> experimental_value("CC[C@H](C)C(=O)O[C@H]1C[C@H](O)C=C2C=C[C@H](C)[C@H](CC[C@@H](O)C[C@@H](O)CC(=O)O)[C@H]21")
"inactive"
>>> experimental_value("O=C1c2ccccc2C(=O)c2c(O)ccc(O)c21")
"inactive"
>>> experimental_value("CCN=C1C=CC(=C(c2ccc(N(CC)CC)cc2)c2ccc(N(CC)CC)cc2)c2ccccc21")
"inactive"
>>> experimental_value("COc1ccc(/C=N/NC(=O)c2ccncc2)cc1OC")
"inactive"
>>> experimental_value("OCCCCCCCCCCCCBr")
"inactive"
>>> experimental_value("O=C1CCCCCCCCCCCC(=O)OCCO1")
"inactive"
>>> experimental_value("O=C1c2ccccc2C(=O)c2cc(S(=O)(=O)O)ccc21")
"inactive"
>>> experimental_value("CCOc1nc2cccc(C(=O)OC(C)OC(=O)OC3CCCCC3)c2n1Cc1ccc(-c2ccccc2-c2nn[nH]n2)cc1 (centres undefined)")
"inactive"
>>> experimental_value("Nc1cccnc1N")
"inactive"
>>> experimental_value("CCCCC(CC)CNC(=O)CC(C)OC(=O)CCC(=O)O (centres undefined)")
"inactive"
>>> experimental_value("CCn1ccc(NS(=O)(=O)c2ccc(N)cc2)nc1=O")
"inactive"
>>> experimental_value("Clc1cccc(Cl)n1")
"inactive"
>>> experimental_value("NC(=O)Nc1nc2ccccc2[nH]1")
"inactive"
>>> experimental_value("Cc1ccc(-c2ncc(Cl)cc2-c2ccc(S(C)(=O)=O)cc2)cn1")
"inactive"
>>> experimental_value("CC(=O)OCC(=O)NCCCOc1cccc(CN2CCCCC2)c1")
"inactive"
>>> experimental_value("c1ccc2occc2c1")
"inactive"
>>> experimental_value("C=CCCCCCCCCCCCCCC")
"0.0173% [at 11.8 µM] (inactive)"
>>> experimental_value("C=C(C)C(=O)OCC")
"inactive"
>>> experimental_value("Cc1ccc2c(Br)cc(Br)c(O)c2n1")
"inactive"

This collection of values is drawn from PubChem BioAssay (Tox21).
